# Tested on: CHO cells
# Type: cell-based, Chinese Hamster
Where a SMILES comes first, the peptide text is derived from it. The star is where a group is joined. NHC(CH2OLauroyl)3 = CCCCCCCCCCCC(=O)OCC(COC(=O)CCCCCCCCCCC)(COC(=O)CCCCCCCCCCC)N*; X3 = CCCCCCCCCCCCCC(=O)OCC(CO)(CO)N*; X2 = CCCCCCCCCCCC(=O)OCC(CO)(CO)N*
Reported values of Viability (CHO) for individual entries
# answer = number (no unit)

compound: CCCCCCCCCCCC(=O)OCC(CO)(CO)NC(=O)[C@H](C)NC(=O)[C@H](CCCCN)NC(=O)[C@H](CCCCN)NC(=O)[C@@H](N)CCCCN [K3ATL1] (H-KKKA-X2)
Viability (CHO): 0.072

compound: CCCCCCCCCC(=O)OCC(COC(=O)CCCCCCCCC)(COC(=O)CCCCCCCCC)NC(=O)[C@H](C)NC(=O)[C@H](CCCCN)NC(=O)[C@H](CCCCN)NC(=O)[C@@H](N)CCCCN
Viability (CHO): 0.052

compound: CCCCCCCCCCCC(=O)OCC(COC(=O)CCCCCCCCCCC)(COC(=O)CCCCCCCCCCC)NC(=O)[C@H](C)NC(=O)[C@H](CCCCN)NC(=O)[C@H](CCCCN)NC(=O)[C@@H](N)CCCCN [K3ATL3] (H-KKKA-{NHC(CH2OLauroyl)3})
Viability (CHO): 0.027

Note: attention shifts to another entry.
Please look at this compound and report its Viability (CHO): CCCCCCCCCCCCCC(=O)OCC(CO)(CO)NC(=O)[C@H](C)NC(=O)[C@H](CCCCN)NC(=O)[C@H](CCCCN)NC(=O)[C@@H](N)CCCCN [K3ATM1] (H-KKKA-X3)
0.07

* * *

# Tested on: CHO cells
# assay_text: β-gal microtitre plate transfection assay, CHO
# Assay type: cell-based, Chinese Hamster
# reported_conditions: Table 3, CHO, highest reading of 72 conditions
Where a SMILES comes first, the peptide text is derived from it. The star is where a group is joined. NHC(CH2OLauroyl)3 = CCCCCCCCCCCC(=O)OCC(COC(=O)CCCCCCCCCCC)(COC(=O)CCCCCCCCCCC)N*; X3 = CCCCCCCCCCCCCC(=O)OCC(CO)(CO)N*; X2 = CCCCCCCCCCCC(=O)OCC(CO)(CO)N*
assay_readout: β-gal (CHO)

Annotate the compound CCCCCCCCCCCCCC(=O)OCC(CO)(CO)NC(=O)[C@H](C)NC(=O)[C@H](CCCCN)NC(=O)[C@H](CCCCN)NC(=O)[C@@H](N)CCCCN [K3ATM1] (H-KKKA-X3) with its measured β-gal (CHO).
5.18 × 10^-6

Read off the recorded β-gal (CHO) for CCCCCCCCCCCC(=O)OCC(COC(=O)CCCCCCCCCCC)(COC(=O)CCCCCCCCCCC)NC(=O)[C@H](C)NC(=O)[C@H](CCCCN)NC(=O)[C@H](CCCCN)NC(=O)[C@@H](N)CCCCN [K3ATL3] (H-KKKA-{NHC(CH2OLauroyl)3})
7.89 × 10^-4

In one line, give reported β-gal (CHO) of the entry CCCCCCCCCC(=O)OCC(COC(=O)CCCCCCCCC)(COC(=O)CCCCCCCCC)NC(=O)[C@H](C)NC(=O)[C@H](CCCCN)NC(=O)[C@H](CCCCN)NC(=O)[C@@H](N)CCCCN [K3ATC3] .
5.27 × 10^-6

Look up β-gal (CHO) of CCCCCCCCCCCC(=O)OCC(CO)(CO)NC(=O)[C@H](C)NC(=O)[C@H](CCCCN)NC(=O)[C@H](CCCCN)NC(=O)[C@@H](N)CCCCN [K3ATL1] (H-KKKA-X2) and report it.
2.99 × 10^-6

* * *

Measured CAT activity (mean) values are reported for all entries that follow.
# System: CHO cells
# assay_text: Transfection of pSVLCAT, CAT assay, CHO
# Assay type: cell-based, Chinese Hamster
# reported_conditions: "x" peptide experiment a, CHO; 25 μl lysate, 20 min assay at 37° C., optimal level
Where a SMILES comes first, the peptide text is derived from it. The star is where a group is joined. NHC(CH2O-Palmitoyl)3 = CCCCCCCCCCCCCCCC(=O)OCC(COC(=O)CCCCCCCCCCCCCCC)(COC(=O)CCCCCCCCCCCCCCC)N*; X5 = CCCCCCCCCCCCCCCC(=O)OCC(CO)(COC(=O)CCCCCCCCCCCCCCC)N*
Output spec: scalar in cpm, unitless text.

Observe how each entry below is paired with its result.
compound: CCCCCCCCCCCCCCCC(=O)OCC(CO)(COC(=O)CCCCCCCCCCCCCCC)NC(=O)[C@H](C)NC(=O)[C@H](CCCCN)NC(=O)[C@@H](N)CCCCN [K2ATP2]
assay_readout: CAT activity (mean)
assay_value: 5418
//
compound: CCCCCCCCCCCCCCCC(=O)OCC(COC(=O)CCCCCCCCCCCCCCC)(COC(=O)CCCCCCCCCCCCCCC)NC(=O)[C@H](C)NC(=O)[C@H](CCCCN)NC(=O)[C@H](CCCCN)NC(=O)[C@H](CCCCN)NC(=O)[C@H](CCCCN)NC(=O)[C@@H](N)CCCCN [K5ATP3] (H-KKKKKA-{NHC(CH2O-Palmitoyl)3})
assay_readout: CAT activity (mean)
assay_value: 1785
//
compound: CCCCCCCCCCCCCCCC(=O)OCC(COC(=O)CCCCCCCCCCCCCCC)(COC(=O)CCCCCCCCCCCCCCC)NC(=O)[C@H](C)NC(=O)[C@H](CCCCN)NC(=O)[C@H](CCCCN)NC(=O)[C@@H](N)CCCCN [K3ATP3, trilysine alanine tris tripalmitate] (H-KKKA-{NHC(CH2O-Palmitoyl)3})
assay_readout: CAT activity (mean)
assay_value: 6237

Now, please, on to the next compound.
Read off the recorded CAT activity (mean) for CCCCCCCCCCCCCCCC(=O)OCC(CO)(COC(=O)CCCCCCCCCCCCCCC)NC(=O)[C@H](C)NC(=O)[C@H](CCCCN)NC(=O)[C@H](CCCCN)NC(=O)[C@H](CCCCN)NC(=O)[C@H](CCCCN)NC(=O)[C@@H](N)CCCCN [K5ATP2] (H-KKKKKA-X5)
132

* * *

Recorded Viability (Cos 1) for the following compounds
# Tested on: Cos 1 cells
# Type: cell-based, African Green Monkey
Where a SMILES comes first, the peptide text is derived from it. The star is where a group is joined. NHC(CH2O-Palmitoyl)3 = CCCCCCCCCCCCCCCC(=O)OCC(COC(=O)CCCCCCCCCCCCCCC)(COC(=O)CCCCCCCCCCCCCCC)N*; NHC(CH2OLauroyl)3 = CCCCCCCCCCCC(=O)OCC(COC(=O)CCCCCCCCCCC)(COC(=O)CCCCCCCCCCC)N*; X3 = CCCCCCCCCCCCCC(=O)OCC(CO)(CO)N*; X2 = CCCCCCCCCCCC(=O)OCC(CO)(CO)N*
Returns: the value as a bare number; no unit string appended.

Below are worked cases with known answers.
compound: CCCCCCCCCCCCCCCC(=O)OCC(COC(=O)CCCCCCCCCCCCCCC)(COC(=O)CCCCCCCCCCCCCCC)NC(=O)[C@H](C)NC(=O)[C@H](CCCCN)NC(=O)[C@H](CCCCN)NC(=O)[C@@H](N)CCCCN [K3ATP3, trilysine alanine tris tripalmitate] (H-KKKA-{NHC(CH2O-Palmitoyl)3})
assay_value: 0.077

compound: CCCCCCCCCCCC(=O)OCC(CO)(CO)NC(=O)[C@H](C)NC(=O)[C@H](CCCCN)NC(=O)[C@H](CCCCN)NC(=O)[C@@H](N)CCCCN [K3ATL1] (H-KKKA-X2)
assay_value: 0.104

compound: CCCCCCCCCCCCCC(=O)OCC(CO)(CO)NC(=O)[C@H](C)NC(=O)[C@H](CCCCN)NC(=O)[C@H](CCCCN)NC(=O)[C@@H](N)CCCCN [K3ATM1] (H-KKKA-X3)
assay_value: 0.102

compound: CCCCCCCCCC(=O)OCC(COC(=O)CCCCCCCCC)(COC(=O)CCCCCCCCC)NC(=O)[C@H](C)NC(=O)[C@H](CCCCN)NC(=O)[C@H](CCCCN)NC(=O)[C@@H](N)CCCCN
assay_value: 0.104

Give recorded Viability (Cos 1). CCCCCCCCCCCC(=O)OCC(COC(=O)CCCCCCCCCCC)(COC(=O)CCCCCCCCCCC)NC(=O)[C@H](C)NC(=O)[C@H](CCCCN)NC(=O)[C@H](CCCCN)NC(=O)[C@@H](N)CCCCN [K3ATL3] (H-KKKA-{NHC(CH2OLauroyl)3})
0.095
